- Tested on: Hepatovirus A
- Assay Protocol: Antiviral activity against hepatitis A virus genotype 1b infected in human Huh-7.5.1 cells assessed as reduction in virus production incubated for 72 hrs by Nano-Glo luciferase assay
- Format: functional, organism-based
- Experimental Context: Huh-7.5.1, 72 h
// reported pEC50 per item
Scale note: pEC50 = -log10(concentration in M).

{"columns": ["Molecule", "pEC50"],
 "data": [
  ["COc1cc(OCC(=O)N/N=C/c2ccc(Br)cc2)cc2c1CCC(c1cc(OC)c(OC)c(OC)c1)O2 (centres undefined)", 5.21],
  ["COc1cc(OCC(=O)N/N=C/c2ccc(Cl)cc2)cc2c1CCC(c1cc(OC)c(OC)c(OC)c1)O2 (centres undefined)", 5.26],
  ["COc1cc(OCC(=O)N/N=C/c2ccc(Cl)s2)cc2c1CCC(c1cc(OC)c(OC)c(OC)c1)O2 (centres undefined)", 5.28]
]}

The recorded pEC50 for entry COc1cc(OCC(=O)N/N=C/c2ccc(C)cc2)cc2c1CCC(c1cc(OC)c(OC)c(OC)c1)O2 (centres undefined) equals 5.03
